System: CCRF-CEM
Experimental protocol: NCI tumour cell line growth inhibition, 48 h
Calls of active or inactive are those of the source. Rule as the data show it: active = GI50 up to about 1.1 µM and inactive = higher.
Would you mind telling me the reported GI50 of each entry?

Examples with their reported GI50 follow.
Cc1cccc(NC(=O)C(=O)C2C(=O)NC(=O)NC2=O)c1C ... > 100 µM (inactive)
CCOc1ccc2c(c1)[n+]([O-])c(-c1nc3ccccc3s1)c(N)[n+]2[O-] ... 48 µM (inactive)
O=C(CN1CCN(c2ccccc2)CC1)c1ccc2[nH]c(=O)oc2c1 ... > 100 µM (inactive)

Hi team, please reply with GI50 for each item in this list.
1. CC(Cc1ccc2c(c1)OCO2)N(C)C(=O)C1=CCN(C)CC1 (stereo unspecified)
2. CC(C)(C)c1cc(C(P(=O)(O)O)P(=O)(O)O)cc(C(C)(C)C)c1O
3. COC(=O)C#CC(N)=O
4. CN1N=C(c2ccncc2)OC1c1ccc(Cl)cc1Cl (stereo unspecified)
5. CCC1(CN(C)C)CC/C(=C\c2ccc3c(c2)OCO3)C1=O (stereo unspecified)
6. Cc1ccc(S(=O)(=O)N(c2ccccc2F)C2CCCCC2O)cc1 (stereo unspecified)
7. O=C(O[C@H](/C=C/c1ccccc1)P1(=O)N(Cc2ccccc2)[C@H]2CCCC[C@@H]2N1Cc1ccccc1)c1ccccc1
8. COC(=O)Cc1cc(=O)oc2c1C(=O)CCC2

1. > 100 µM (inactive)
2. > 100 µM (inactive)
3. 13.9 µM (inactive)
4. 48.6 µM (inactive)
5. 48.6 µM (inactive)
6. 56.9 µM (inactive)
7. 3.48 µM (inactive)
8. > 100 µM (inactive)
